Where these numbers come from: ChEMBL document CHEMBL1132269

- Tested on: MDA-MB-361
- METHOD: The compound was tested for intracellular cytotoxicity against MDA MB 361(mammary carcinoma cell line) expressing carboxypeptidase G2(CPG2).
- Assay type: functional, cell-based
- CONDITION LABEL: Homo sapiens

QUERY SMILES: COc1cccc2c1C(=O)c1c(O)c3c(c(O)c1C2=O)C[C@@](O)(C(=O)CO)C[C@@H]3O[C@H]1C[C@H](N)[C@H](O)[C@H](C)O1
IC50 / µM: 0.033

---

- Test system: CPG2 (carboxypeptidase)
- METHOD: Half life period in the presence of CPG2 (carboxypeptidase) enzyme
- Type: ADME

COMPOUND: COc1cccc2c1C(=O)c1c(O)c3c(c(O)c1C2=O)C[C@@](O)(C(=O)CO)C[C@@H]3OC1CC(NC(=O)OCc2ccc(NC(=O)NC(CCC(=O)O)C(=O)O)cc2)C(O)C(C)O1 (some centres undefined)
half-life (h): 0.7
//
COMPOUND: COc1cccc2c1C(=O)c1c(O)c3c(c(O)c1C2=O)C[C@@](O)(C(C)=O)C[C@@H]3OC1CC(NC(=O)OCc2ccc(OC(=O)NC(CCC(=O)O)C(=O)O)cc2)C(O)C(C)O1 (some centres undefined)
half-life (h): 2.21
//
COMPOUND: COc1cccc2c1C(=O)c1c(O)c3c(c(O)c1C2=O)C[C@@](O)(C(C)=O)C[C@@H]3OC1CC(NC(=O)OCc2ccc(NC(=O)NC(CCC(=O)O)C(=O)O)cc2)C(O)C(C)O1 (some centres undefined)
half-life (h): 0.645
//
COMPOUND: COc1cccc2c1C(=O)c1c(O)c3c(c(O)c1C2=O)C[C@@](O)(C(=O)CO)C[C@@H]3OC1CC(NC(=O)OCc2ccc(OC(=O)NC(CCC(=O)O)C(=O)O)cc2)C(O)C(C)O1 (some centres undefined)
half-life (h): 4.46
